tested on: E. coli assay strain Km3; experiment: Liquid B-galactosidase assays of chlorsulfuron repressor hits (induction and repression); details: CsL4.2 hits; 20 ppb Cs vs no inducer
Assay Endpoint: F. IND = fold induction (IND/REP) (B-galactosidase)
One number for each entry.

Before answering, review these 2 worked examples.
CsL4.2-21 (protein, Sulfonylurea responsive repressor) MARLDKSKVINSALELLNEVGIEGLTTRKLAQKLGVEQPTLYWHVKNKRALLDALAIEMMDRHGTHYLPLEGESWQDFLRNYAKSMRRALLSHRDGAKVALGTRWTEQQYETAENMLACLTQQGFSLENALYATSAVRVFTLGAVLLDQEQQVANEERETPTTDSMPPLLRQAWELKVHQGAEPAFLFGLELIIAGLEKQLKRESGSHHHHHH: 13.2
CsL4.2-18 (protein, Sulfonylurea responsive repressor) MARLDKSKVINSALELLNEVGIEGLTTRKLAQKLGVEQPTLYWHVKNKRALLDALAIEMMDRHQTHYLPLEGESWQDFLRNFAKSMRCALLSHRDGAKVALGTRWTEQQYETAENMLAFLTQQGFSLENALYATSAVRVFTLGAVLLDQEQQVAKEERETPTPDRMPPLLRQAWELKVHQGAEPAFLFGLELLIAGLEKQLKRESGSHHHHHH: 9.3

Identify the reported F. IND = fold induction (IND/REP) (B-galactosidase) for the following entry. CsL4.2-11 (protein, not fully specified; Sulfonylurea responsive repressor; VARIANT 202: Xaa = Any Amino Acid) MARLDKSKVINSALELLNEVGIEGLTTRKLAQKLGVEQPTLYWHVKNKRALLDALAIEMHDRHGTHYLPLEGESWQDYLRNFAKSMRRALLSHRDGAKVSLGTRWTEQQYETAENMLAFLTQQGFSLENALYATSAVRVFTLGAVLLDQEQQVAKEERETPTTDSMPPLLRQAWELKEHQGAEPAFLFGLELIIAGLEKQLXRESGSHHHHHH
8.9
